- target-of-assay: MCR-1 (Homo sapiens)
- Construct: expressed in transfected cells; host or cells: HEK 293
- Sequence (Q01726 whole entry): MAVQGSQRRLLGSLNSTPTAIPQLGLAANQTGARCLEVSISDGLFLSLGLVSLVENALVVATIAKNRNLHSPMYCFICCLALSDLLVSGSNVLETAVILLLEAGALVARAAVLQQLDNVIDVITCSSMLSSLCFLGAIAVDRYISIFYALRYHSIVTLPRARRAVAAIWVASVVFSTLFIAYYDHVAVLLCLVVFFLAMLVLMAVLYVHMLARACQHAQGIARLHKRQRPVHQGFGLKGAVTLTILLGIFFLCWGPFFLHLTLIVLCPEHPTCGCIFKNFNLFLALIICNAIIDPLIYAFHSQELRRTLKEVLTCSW
- test-protocol: Melanocortin receptor binding assay, competition with 125I-HP 467, HEK 293 cells expressing hMCR-1
- measurement-context: TRG 2414 library; inhibition of binding of 125I-HP 467, HEK 293 cells expressing MCR-1; read-out: MC-1 IC50
pIC50 values by entry
pIC50 here: minus log base 10 of the concentration, concentration in moles per litre.

Endpoint output: pIC50 of CC(C)Cc1ccc(C(C)CNC(CN)CCCCN2Cc3ccccc3C(CNCCc3cccc(Cl)c3)C2c2ccccc2Br)cc1 (stereo not shown) [Cmpd 216] . Value?
4.32

Endpoint output: pIC50 of NCC(CCCCN1Cc2ccccc2C(CNC2CCCCCC2)C1c1ccccc1Br)NCc1ccccc1 (stereo not shown) [Cmpd 235] . Value?
5.54

Endpoint output: pIC50 of CCCOc1ccc(C2C(CNC3CCCCC3)c3ccccc3CN2CCCCC(N)CN)cc1 (stereo not shown) [Cmpd 197] . Value?
6.38

Endpoint output: pIC50 of CCCOc1ccc(C2C(CNC3CCCCCC3)c3ccccc3CN2CCCCC(CN)NCC(C)c2ccc(CC(C)C)cc2)cc1 (stereo not shown) [Cmpd 196] . Value?
4.88

Endpoint output: pIC50 of COc1cccc(CNCC2c3ccccc3CN(CCCCC(N)CN)C2c2ccccc2Br)c1 (stereo not shown) [Cmpd 217] . Value?
5.25

Endpoint output: pIC50 of COc1cccc(CNCC2c3ccccc3CN(CCCCC(CN)NCC(C)c3ccc(CC(C)C)cc3)C2c2ccccc2Br)c1 (stereo not shown) [Cmpd 220] . Value?
4.39

Now examine the next entry.
Endpoint output: pIC50 of COc1ccc(CNCC2c3ccccc3CN(CCCCC(CN)NCc3ccccc3)C2c2ccccc2Br)cc1 (stereo not shown) [Cmpd 223] . Value?
4.98

====

% Disp. MC-1 10 μM values by entry
- target-of-assay: MCR-1 (Homo sapiens)
- Construct: expressed in transfected cells; host or cells: HEK 293
- test-protocol: Melanocortin receptor binding assay, competition with 125I-HP 467, HEK 293 cells expressing hMCR-1
- measurement-context: displacement of 125I-HP 467 at 10 μM isoquinoline compound; first of duplicate
# unit: % | format: bare number

Worked set:
Endpoint output: % Disp. MC-1 10 μM of CNC(CN)CN1Cc2ccccc2C(CNC2CCCCC2)C1c1ccsc1 (mixture of isomers) . Value?
54.6

Endpoint output: % Disp. MC-1 10 μM of CNC(CN)CN1Cc2ccccc2C(CNC2CCCCC2)C1c1ccc(OC)c(C)c1 (mixture of isomers) . Value?
49

Endpoint output: % Disp. MC-1 10 μM of CNC(CN)CN1Cc2ccccc2C(CNC2CCCCC2)C1c1ccc(C)s1 (stereo not drawn) . Value?
44.9

Endpoint output: % Disp. MC-1 10 μM of NCCN1Cc2ccccc2C(CNC2CCCCC2)C1c1cccc(Br)c1 (stereo not drawn) . Value?
49.7

Endpoint output: % Disp. MC-1 10 μM of NCCN1Cc2ccccc2C(CNC2CCCCC2)C1c1ccccc1 (mixture of isomers) . Value?
85.3

Now examine the next entry.
Endpoint output: % Disp. MC-1 10 μM of NCCN1Cc2ccccc2C(CNC2CCCCC2)C1c1ccc([N+](=O)[O-])c(O)c1 (stereo not drawn) . Value?
19.9
